Read-out: Matrix Metallopeptidase 1 (MMP1), MMP1 (gene 4312)
procedure.text: BSK_BE3C_MMP1: BioMAP Diversity Plus: BE3C Assay for Matrix Metallopeptidase 1 (MMP1) Biomarker Activity (AID 2283024)
measurement.conditions: primary human bronchial epithelial cells; actives raise or lower the signal
Protocol: BSK_BE3C is a cell-based, multiplexed-readout assay that uses bronchial epithelial cell, a human lung primary cell, with measurements taken at 24 hours after chemical dosing in a 96-well plate.BSK_BE3C_MMP1 is an assay component measured in the BSK_BE3C assay. It measures MMP-1 antibody related to regulation of gene expression using ELISA technology.Data from the assay component BSK_BE3C_MMP1 was analyzed into 1 assay endpoint. […]
The source made the active and inactive calls. The calls were made as follows: active = hit-call score of the fitted dose curve at least 0.9, where 1 is the maximum; inactive = score below 0.9.
# valid calls are YES = active, NO = inactive; nothing else

Give the logged outcome of this assay for the following compound: CCCCC(CC)COC(=O)c1ccccc1O (centres undefined)
NO

Kindly provide the recorded test outcome for the following compound: CCO[Si](C)(OCC)OCC
NO

Which result was noted for this compound in the test: O=C(Cl)c1cc(C(=O)Cl)cc(C(=O)Cl)c1
YES

Give the logged outcome of this assay for the following compound: COCc1c(C(C)C)nc(C(C)C)c(/C=C/[C@@H](O)C[C@@H](O)CC(=O)O)c1-c1ccc(F)cc1
NO

Please indicate how the test categorized C=C[Si](OC(C)=O)(OC(C)=O)OC(C)=O .
NO

Hi, sorry to bother you, what did the test record for c1ccc2c(c1)ccc1cc3c(ccc4ccccc43)cc12 ?
YES

Assay outcome for O=C(Nc1ccccc1SSc1ccccc1NC(=O)c1ccccc1)c1ccccc1 : what was it?
NO

Hi, do you know how CCO[Si](CCCN=C=O)(OCC)OCC came out in this test?
NO

In this assay, the call recorded for C#CC1(O)CC[C@H]2[C@@H]3CCC4=CCCC[C@@H]4[C@H]3CC[C@@]21C (some centres undefined) was what?
YES

How did this test come out for COc1ccc2nc(N)sc2c1 ?
NO

Hi, sorry to bother you, what did the test record for C=CC(=O)OCC(Br)CBr (centres undefined) ?
NO

Lab log entry: CN1C(=O)N(C)C(O)C1O (centres undefined) — outcome as called in the assay?
NO

Lab log entry: CO[Si](OC)(OC)c1ccccc1 — outcome as called in the assay?
NO

Assay result, entry S=C(NC1CCCCC1)NC1CCCCC1 — outcome?
NO

Test call, this compound: CCCCC(CC)COCC1CO1 (centres undefined)
NO

Entry CCCCCCCCCCCCCCCC[N+](C)(C)CC : call = ?
YES

Recorded test outcome, item C/C=C\C/C=C/CCCCCCCCOC(C)=O
NO

Which outcome was entered for the compound CC1OC1C1CCC2(C)OC2C1 (centres undefined) in this test?
NO

Short answer needed: outcome of this test for N#[N+]c1ccc2c(S(=O)(=O)[O-])cccc2c1O ?
NO

* * *

procedure.text: TOX21_p53_BLA_p2_viability: Viability Assessment in the Tox21 HCT-116 p53 Agonism Beta-lactamase Assay, Phase 2 (AID 2283591);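 also: compound exposure lasted 16 h at 37 °C; actives lower the ATP signal meaning cytotoxicity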
Results filed as inconclusive are left out. Activity calls are given as the source filed them. Rule for the calls: active = hit-call score of the fitted dose curve at least 0.9, where 1 is the maximum; inconclusive = response in the unintended direction; inactive = score below 0.9.
The reply should be one of these categories: active, inactive

Give the logged outcome of this assay for the following compound: CC=CC(=O)N(CC)c1ccccc1C
inactive

Record request — test call for Nc1nc2ccccc2[nH]1
inactive

Short answer needed: outcome of this test for COC(=O)C1=C(C)NC(C)=C(C(=O)OCC(C)C)C1c1ccccc1[N+](=O)[O-] (centres undefined) ?
inactive

Could you check what this test reported for CCOC(=O)CC ?
inactive

What is the recorded call for this compound in the test? [Cl][Bi]([Cl])([c]1ccccc1)([c]1ccccc1)[c]1ccccc1
active

Outcome logged for c1ccc(CCCc2ccncc2)cc1 in this assay:
inactive

Check the results log: what was the call for CCCCCCCCCCC=CC#N ?
inactive

Could you check what this test reported for O=C(c1ccccc1)c1ccc(O)c(O)c1O ?
inactive

Lab log entry: [Cl][In]([Cl])[Cl] — outcome as called in the assay?
inactive

Test call, this compound: CC(=O)c1ccc[nH]1
inactive

// return assay outcome for c1ccc2c(c1)ccc1cc3c(ccc4ccccc43)cc12
inactive

Per the records of this test, what outcome belongs to Cc1cc(C)c(C)c(C)c1 ?
inactive

Can you look up the reported call for COC(=O)c1cc(Cl)ccc1[N+](=O)[O-] for me?
inactive

// return assay outcome for [Cl][Nd]([Cl])[Cl]
inactive

* * *

procedure.text: ATG_TCF_b_cat_CIS: Attagene CIS-FACTORIAL HepG2 Assay for human T-Cell-Factor with beta-catenin (TCF/b-cat) (AID 2282965)
measurement.conditions: HepG2 TCF/beta-catenin cis-reporter transcription, actives raise or lower the signal
Calls of active or inactive are those of the source. The calls were made as follows: active = hit-call score of the fitted dose curve at least 0.9, where 1 is the maximum; inactive = score below 0.9.
Output constraint: value belongs to 1 (active), -1 (inactive)

// outcome(item) with item = CC(=O)c1ccc[nH]1
-1

Recorded test outcome, item C=C(C)C(=O)OCC(C)C
-1

Which outcome was assigned to CC(C)CC(O)Cc1ccccc1 (configuration not stated) in this test?
-1

Test call for this compound, please: C=C[Si](C)(C)O[Si](C)(C)C=C
-1

How was O=C(Nc1ccccc1SSc1ccccc1NC(=O)c1ccccc1)c1ccccc1 classified in this test?
-1

For O=C1C=CC(=O)O1 , what call appears in the results of this test?
-1

I would be grateful if you could indicate the recorded call for CC1(C)O[C@@H]2C[C@H]3[C@@H]4C[C@H](F)C5=CC(=O)CC[C@]5(C)[C@H]4[C@@H](O)C[C@]3(C)[C@]2(C(=O)CO)O1 .
-1

Field: outcome | Entry: CCc1c(C(=O)O)c(=O)cnn1-c1ccc(Cl)cc1
-1

In this assay, the call recorded for CCOC(=O)Cc1cccc2ccccc12 was what?
-1

Outcome? Cc1ccc2oc(=O)ccc2c1
-1

Which outcome was assigned to C=CCCCCCCCCC(=O)OCCCC in this test?
-1

What was the test verdict on C(=CC=Nc1ccccc1)C=CNc1ccccc1 ?
-1

Kindly provide the recorded test outcome for the following compound: O=C1Nc2ccccc2C1(c1ccc(O)cc1)c1ccc(O)cc1
1

State the result this test recorded for CCc1ccc2c(c1)C(=O)c1ccccc1C2=O .
-1

How did this test come out for CCCCC/C=C\CCC=O ?
-1

GET /call?item= O=c1c2ccccc2oc2ccccc12 returns the recorded outcome of this test.
-1

Please share the test call associated with COc1ccc(NC(C)=O)cc1N .
-1

In this assay, the call recorded for O=S(=O)(O)c1cc(S(=O)(=O)O)c2ccc3c(S(=O)(=O)O)cc(S(=O)(=O)O)c4ccc1c2c43 was what?
-1

In this assay, the call recorded for CC(C)C1=CC2=CC[C@@H]3[C@](C)(CCC[C@@]3(C)C(=O)O)[C@H]2CC1 was what?
-1

Please state the recorded outcome for this compound: O=c1[nH]nc(-c2ccc([N+](=O)[O-])o2)o1
-1

Just curious, what result did CC[C@H]1OC(=O)[C@H](C)[C@@H](O[C@H]2C[C@@](C)(OC)[C@@H](O)[C@H](C)O2)[C@H](C)[C@@H](O[C@@H]2O[C@H](C)C[C@H](N(C)C)[C@H]2O)[C@](C)(O)C[C@@H](C)C(=NOCOCCOC)[C@H](C)[C@@H](O)[C@]1(C)O get here?
-1

GET /call?item= S=C(NC1CCCCC1)NC1CCCCC1 returns the recorded outcome of this test.
-1

Look up the recorded call for [Cl][Bi]([Cl])([c]1ccccc1)([c]1ccccc1)[c]1ccccc1 in this test.
1

Write down the call the test reported for this compound. Item: O=P(O)(O)Oc1ccccc1
-1

Assay outcome for CCCCCC(C)O (configuration not stated) : what was it?
-1

Short answer needed: outcome of this test for O=S(=O)(Oc1ccc(Cl)cc1Cl)c1ccccc1 ?
-1

Recorded test outcome, item O=C(C=Cc1ccccc1)OCc1ccccc1
-1

Kindly provide the recorded test outcome for the following compound: O=c1c2ccccc2nnn1CCl
-1

What did the test return for CCCCNc1ccc(NCCCC)c2c1C(=O)c1ccccc1C2=O ?
-1

Could you check what this test reported for O=S(=O)(O)CC(O)CCl (configuration not stated) ?
-1

For CC(CC=O)c1ccccc1 (configuration not stated) , what call appears in the results of this test?
-1

Fill in: this test's call for C=CCOc1c(Br)cc(Br)cc1Br is ___
-1

Name the outcome recorded for C=CC(=O)OCCOC1C2CCC1C1CC=CC12 (configuration not stated) in the assay.
-1

I would be grateful if you could indicate the recorded call for CC(C)(C)C1CCCCC1=O (configuration not stated) .
-1

Record lookup: outcome of this test for CCCCC(CC)COC(=O)c1ccccc1O (configuration not stated) ?
-1

Given CCOc1nc(F)cc2nc(S(=O)(=O)Nc3c(Cl)cccc3C(=O)OC)nn12 , state the outcome it received in this test.
-1

Identify the outcome logged in this assay for the compound shown: COC(=O)c1cc(Cl)ccc1[N+](=O)[O-]
-1

Please share the test call associated with CC(C)c1ccc2c(c1)CC[C@H]1[C@](C)(CN)CCC[C@]21C .
1

Query: recorded result category for COc1c2ccoc2cc2oc(=O)ccc12 in this test
-1

# lookup: test call for C[C@]12CCC(=O)C=C1CC[C@@H]1[C@@H]2C(=O)C[C@@]2(C)[C@H]1CC[C@]2(O)C(=O)CO
-1

Per the assay record, what outcome was assigned to CCOC(=O)CC(C(C)=O)C(C)=O ?
-1

Field: outcome | Entry: CC=C1CC2C=CC1C2 (configuration not stated)
-1

# outcome recorded in this test, key = NC(=O)C1CO1 (configuration not stated)
-1

Recorded test call requested for CC(=O)C=CC1C(C)=CCC(C)C1(C)C (configuration not stated)
-1

Dear colleague, could you share the recorded outcome for C=C[C@](C)(O)CC[C@@H]1[C@@]2(C)CCCC(C)(C)[C@@H]2CC[C@@]1(C)O when you have a moment?
-1

Short answer needed: outcome of this test for c1cc(N(CC2CO2)CC2CO2)ccc1OCC1CO1 (configuration not stated) ?
1

How was CCCCCCCCO[C@@H]1O[C@H](CO)[C@@H](O)[C@H](O)[C@H]1O classified in this test?
-1

Identify the outcome logged in this assay for the compound shown: CCCc1ccc(OC)cc1
-1

Hi, do you know how CC(C)=CCC/C(C)=C\C#N came out in this test?
-1

// param item: OC1CCCCCCCCCCC1 ; yields the recorded call
-1

Answer briefly: the call reported for CC(=O)OC(C)C in this assay.
-1

Assay result, entry O=[N+]([O-])c1ccc(CO)cc1 — outcome?
-1
